Every entry's value here was drawn from patent US6875760B2.

target: human glucagon receptor (Homo sapiens, UniProt P47871); construct: expressed in transfected cells; host or cells: BHK (baby hamster kidney) cells; assay: Glucagon Binding Assay (III); conditions: BHK cell membranes, WGA SPA beads, 125I-glucagon; read-out: Glu Bd Assay (III) IC50
Sequence (P47871 26-477): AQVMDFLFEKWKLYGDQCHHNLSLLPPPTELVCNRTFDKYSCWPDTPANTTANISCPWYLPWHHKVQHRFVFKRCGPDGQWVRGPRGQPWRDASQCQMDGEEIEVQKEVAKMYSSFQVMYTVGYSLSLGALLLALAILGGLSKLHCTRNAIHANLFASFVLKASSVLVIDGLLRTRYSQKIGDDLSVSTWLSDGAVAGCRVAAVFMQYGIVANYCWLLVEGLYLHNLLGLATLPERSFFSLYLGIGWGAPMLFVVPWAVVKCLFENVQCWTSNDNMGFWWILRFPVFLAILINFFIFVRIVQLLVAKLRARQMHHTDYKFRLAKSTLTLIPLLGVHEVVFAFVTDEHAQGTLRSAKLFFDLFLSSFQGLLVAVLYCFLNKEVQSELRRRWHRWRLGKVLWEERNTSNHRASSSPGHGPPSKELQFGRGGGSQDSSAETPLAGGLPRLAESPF
measurement kind: log10 of IC50 (log10 of the value in nM)
All values: log10 IC50 [nM].

Please review the following examples before continuing.
[
  {
    "molecule": "O=C(Nc1nn[nH]n1)c1ccc(CN(C(=O)Nc2cccc([N+](=O)[O-])c2)c2ccc(C3=CCCCC3)cc2)cc1",
    "endpoint result": 1.79
  },
  {
    "molecule": "O=C(O)CCNC(=O)c1ccc(CN(C(=O)Nc2ccc(OC(F)(F)F)cc2)c2ccc(N3CCCCC3)cc2)cc1",
    "endpoint result": 2.10
  },
  {
    "molecule": "CCCCc1ccc(N(Cc2ccc(C(=O)Nc3nn[nH]n3)cc2)C(=O)Nc2ccccc2)cc1",
    "endpoint result": 2.40
  },
  {
    "molecule": "CSc1cccc(NC(=O)N(Cc2ccc(C(=O)Nc3nn[nH]n3)cc2)c2ccc(C3CCCCC3)cc2)c1",
    "endpoint result": 1.79
  },
  {
    "molecule": "CC(C)(C)[C@H]1CC[C@H](N(Cc2ccc(C(=O)NCCC(=O)O)cc2)C(=O)Nc2ccc(OC(F)(F)F)c(C#N)c2)CC1",
    "endpoint result": 1.75
  }
]

CC(C)(C)C1CCC(N(Cc2ccc(C(=O)Nc3nn[nH]n3)cc2)C(=O)c2cc3cc(Cl)ccc3o2)CC1 (stereo not shown) on human glucagon receptor (Homo sapiens, UniProt P47871) gives log10 of IC50 = 2.13

CC(C)c1ccc(NC(=O)N(Cc2ccc(C(=O)NCCC(=O)O)cc2)C2CCC(C(C)(C)C)CC2)cc1 (stereo not shown) [Example 29] on human glucagon receptor (Homo sapiens, UniProt P47871) gives log10 of IC50 = 2.17

CC(C)(C)c1ccc(N(Cc2ccc(C(=O)NCCC(=O)O)cc2)C(=O)Oc2ccc(Cl)cc2Cl)cc1 on human glucagon receptor (Homo sapiens, UniProt P47871) gives log10 of IC50 = 2.88

CCC[C@H]1CC[C@@H](N(Cc2ccc(C(=O)NCCC(=O)O)cc2)C(=O)Nc2ccc(OC(F)(F)F)cc2)CC1 on human glucagon receptor (Homo sapiens, UniProt P47871) gives log10 of IC50 = 2.47

O=C(O)CCNC(=O)c1ccc(CN(C(=O)Nc2ccc(OC(F)(F)F)cc2)C2CCC3(CC2)OCCO3)cc1 on human glucagon receptor (Homo sapiens, UniProt P47871) gives log10 of IC50 = 3.08

* * *

biological target: cloned human glucagon receptor (Homo sapiens); construct: expressed in transfected cells; plasma membrane preparation; test: Glucagon Binding Assay (II); settings: plasma membranes of BHK cells expressing the receptor; read-out: Glu Bd Assay (II) IC50
compounds and their reported pIC50
Expect pIC50 as a plain number equal to -log10 of the molar concentration.

[
  {
    "compound": "CCCCOC(=O)c1ccc(NC(=O)N(Cc2ccc(C(=O)NCCC(=O)O)cc2)CC(C)(C)C)cc1",
    "pIC50": 6.64
  },
  {
    "compound": "O=C(Nc1nn[nH]n1)c1ccc(CN(C(=O)Nc2cc(Cl)cc(Cl)c2)c2ccc(C3=CCCCC3)cc2)cc1",
    "pIC50": 8.10
  },
  {
    "compound": "CC(C)(C)C1CCC(N(Cc2ccc(C(=O)NCCc3nnn[nH]3)cc2)C(=O)Nc2ccc(OC(F)(F)F)cc2)CC1 (stereo not shown)",
    "pIC50": 6.84
  }
]

Record summary for C[C@@H](NC(=O)N(Cc1ccc(C(=O)NCCC(=O)O)cc1)c1ccc(C2CCCCC2)cc1)c1ccccc1 : reported pIC50 = 6.17

Record summary for CC(C)(C)[C@H]1CC[C@H](N(Cc2ccc(C(=O)NCCC(=O)O)cc2)C(=O)c2ccc(OC(F)(F)F)cc2)CC1 : reported pIC50 = 6.06

Record summary for O=C(Nc1nn[nH]n1)c1ccc(CN(C(=O)Nc2ccc3[nH]ccc3c2)c2ccc(C3CCCCC3)cc2)cc1 : reported pIC50 = 6.45

Record summary for O=C(O)CCNC(=O)c1ccc(CN(Cc2cc(Cl)cc(Cl)c2)c2ccc(C3CCCCC3)cc2)cc1 : reported pIC50 = 6.97
